tested on: NCI-H69 SCLC (small cell lung cancer) tumors; assay: H69 tumor DM-1 levels by LC/MS-MS; assay type: in vivo, mice; conditions: 24 hour time point; dosed at 1 mg/kg (conjugates, nanoparticles) or 0.4 mg/kg for DM-1
// values below are reported H69 tumor DM-1 levels
Lab book: enter the figure in nM, no units written.

Reference set (4 entries):
INSERT INTO measurements (compound, units_text, result_value) VALUES
  ('CCCCCCCCN[C@H](Cc1ccccc1)C(=O)N[C@H]1CSSC[C@@H](C(=O)N[C@H](C(=O)NCCSSCCC(=O)N(C)[C@@H](C)C(=O)O[C@H]2CC(=O)N(C)c3cc(cc(OC)c3Cl)C/C(C)=C/C=C/[C@@H](OC)[C@@]3(O)C[C@H](OC(=O)N3)[C@@H](C)[C@@H]3O[C@@]23C)[C@@H](C)O)NC(=O)[C@H]([C@@H](C)O)NC(=O)[C@H](CCCCN)NC(=O)[C@@H](Cc2c[nH]c3ccccc23)NC(=O)[C@H](Cc2ccc(O)cc2)NC1=O [Conjugate 55]', 'nM', 95.3),
  ('COc1cc2cc(c1Cl)N(C)C(=O)C[C@H](OC(=O)[C@H](C)N(C)C(=O)CCSSCCC(=O)NCCCOCCOCCOCCCNC(=O)CC[C@H]1C(=O)N[C@@H](Cc3ccc(O)cc3)C(=O)N[C@H](Cc3c[nH]c4ccccc34)C(=O)N[C@@H](CCCCN)C(=O)N[C@@H]([C@@H](C)O)C(=O)N[C@@H](Cc3ccccc3)C(=O)N1C)[C@]1(C)O[C@H]1[C@H](C)[C@@H]1C[C@@](O)(NC(=O)O1)[C@H](OC)/C=C/C=C(\C)C2 [Conjugate 18]', 'nM', 86.3),
  ('COc1cc2cc(c1Cl)N(C)C(=O)C[C@H](OC(=O)[C@H](C)N(C)C(=O)CCS)[C@]1(C)O[C@H]1[C@H](C)[C@@H]1C[C@@](O)(NC(=O)O1)[C@H](OC)/C=C/C=C(\C)C2 [DM-1, reference compound]', 'nM', 31.6),
  ('COc1cc2cc(c1Cl)N(C)C(=O)C[C@H](OC(=O)[C@H](C)N(C)C(=O)CCSSCCCN[C@H](Cc1ccccc1)C(=O)N[C@H]1CSSC[C@@H](C(=O)N[C@H](CO)[C@@H](C)O)NC(=O)[C@H]([C@@H](C)O)NC(=O)[C@H](CCCCN)NC(=O)[C@@H](Cc3c[nH]c4ccccc34)NC(=O)[C@H](Cc3ccccc3)NC1=O)[C@]1(C)O[C@H]1[C@H](C)[C@@H]1C[C@@](O)(NC(=O)O1)[C@H](OC)/C=C/C=C(\C)C2 [Conjugate 76]', 'nM', 62.2);

Next item in the queue.
Problem: Fill in the blank: the reported H69 tumor DM-1 levels of COc1cc2cc(c1Cl)N(C)C(=O)C[C@H](OC(=O)[C@H](C)N(C)C(=O)CCSSCCC(=O)NCc1ccc(C[C@@H](N)C(=O)N[C@H]3CSSC[C@@H](C(=O)N[C@H](C(=O)O)[C@@H](C)O)NC(=O)[C@H]([C@@H](C)O)NC(=O)[C@H](CCCCN)NC(=O)[C@@H](Cc4c[nH]c5ccccc45)NC(=O)[C@H](Cc4ccc(O)cc4)NC3=O)cc1)[C@]1(C)O[C@H]1[C@H](C)[C@@H]1C[C@@](O)(NC(=O)O1)[C@H](OC)/C=C/C=C(\C)C2 [Conjugate 115] is ____.
Result: 37.1
